Where do the numbers come from? From patent US9526720B2.

test system: PCSK9; assay: ELISA of secreted PCSK9 protein in HepG2 cells; type: cell-based, human; conditions: HepG2 cells; further: test concentration or dose not given here

[
  {
    "compound": "O=C(C[C@H]1C[C@H]2c3cc(NS(=O)(=O)c4ccc(F)cc4)ccc3O[C@H]2[C@H](CO)O1)NCc1ccc(Oc2ccccc2)cc1 [Compound 13a]",
    "ELISA PCSK9": "Y (Decrease >2-fold)"
  },
  {
    "compound": "CN1C(=O)c2cc(NC(=O)c3ccc(C(F)(F)F)cc3)ccc2OC[C@@H]2O[C@@H](CC(=O)NC3Cc4ccccc4C3)CC[C@@H]21 [Compound 2a]",
    "ELISA PCSK9": "Y (Decrease >2-fold)"
  },
  {
    "compound": "O=C(C[C@H]1C[C@H]2c3cc(NC(=O)c4ccc5c(c4)OCO5)ccc3O[C@H]2[C@H](CO)O1)NCc1ccc(Oc2ccccc2)cc1 [Compound 11a]",
    "ELISA PCSK9": "Y (Decrease >2-fold)"
  }
]
